For reference, the following IC50 results for UniProt O60674 were taken from various sources.
recordedEndpoint: IC50

[[record]]
smi = "Cc1cnc2nc1Nc1cccc(c1)CCNC(=O)c1ccc(cc1F)-c1cnc(F)c(c1)N2"
recordedendpoint = "IC50"
result = "0.011 to 0.1 µM"

[[record]]
smi = "CN1CCC(N2C(=O)c3cc4nc(-c5c(NC[C@@H](O)COc6ccc(F)cc6)cc[nH]c5=O)[nH]c4cc3C2=O)CC1"
recordedendpoint = "IC50"
result = "0.5 to 5 µM"

[[record]]
smi = "CCN(c1ccccc1CNc1nc(-c2cc(F)c(O)cc2CC(F)(F)F)nc2[nH]nc(C(=O)NC)c12)S(C)(=O)=O"
recordedendpoint = "IC50"
result = "0.031 µM"

[[record]]
smi = "CN1CCN(c2ccc(Nc3ncc4c(n3)CCN(c3cc(NC(=O)c5cccc(C(F)(F)F)c5)ccc3Cl)C4=O)cc2)CC1"
recordedendpoint = "IC50"
result = "0.006 µM"


====

Assay read-out pIC50 on Tyrosine-protein kinase JAK2 (Homo sapiens, UniProt O60674); records merged from the literature.
pIC50: −log10 of the molar value.
recordedEndpoint: pIC50

[[record]]
compound = "COc1cnc(Nc2ccc(C(=O)N3CCN(C)CC3)cc2)nc1-c1cnn(C(CC#N)C2CCCC2)c1 (racemic)"
experimentaltarget = "Tyrosine-protein kinase JAK2 (Homo sapiens, UniProt O60674)"
result = "> 7.00"

[[record]]
compound = "CN(c1ncccc1Cn1ccc2cnc(Nc3ccc4ncsc4c3)nc21)S(C)(=O)=O"
experimentaltarget = "Tyrosine-protein kinase JAK2 (Homo sapiens, UniProt O60674)"
result = "> 7.70"

[[record]]
compound = "N#Cc1cc(-c2ncnc(Nc3ccc(N4CCN(C5COC5)CC4)cc3)n2)ccc1OCCCN1CCCC1=O"
experimentaltarget = "Tyrosine-protein kinase JAK2 (Homo sapiens, UniProt O60674)"
result = "≤ 6.00"

[[record]]
compound = "Cc1ccc(OC[C@H](O)CNc2ccnc(O)c2-c2nc3cc4c(cc3[nH]2)C(=O)N([C@H]2CCCN(C)C2)C4=O)c(C)c1"
experimentaltarget = "Tyrosine-protein kinase JAK2 (Homo sapiens, UniProt O60674)"
result = "4.82 to 5.30"

[[record]]
compound = "N#CCC(C1CCCC1)n1cc(-c2ccnc(Nc3cccc(C(=O)N4CCN(c5ccc(C#N)cc5)CC4)c3)n2)cn1 (racemic)"
experimentaltarget = "Tyrosine-protein kinase JAK2 (Homo sapiens, UniProt O60674)"
result = "> 7.00"

[[record]]
compound = "N#Cc1cc(-c2ncnc(Nc3ccc(N4CCO[C@@H](CO)C4)cc3)n2)ccc1O[C@H]1CCN(C(=O)CO)C[C@H]1F"
experimentaltarget = "Tyrosine-protein kinase JAK2 (Homo sapiens, UniProt O60674)"
result = 6.72

[[record]]
compound = "N#CCC(C1CCCC1)n1cc(-c2ccnc(Nc3ccc(OCCN4CCCC4)cc3)n2)cn1 (racemic)"
experimentaltarget = "Tyrosine-protein kinase JAK2 (Homo sapiens, UniProt O60674)"
result = "> 7.00"


====

Endpoint summary: IC50, system: Tyrosine-protein kinase JAK2 (Homo sapiens, UniProt O60674), multiple sources combined.
recordedEndpoint: IC50

[[record]]
compound = "Cc1ccc(-c2cc(C(N)=O)c3[nH]c4ccc(C(=O)O)cc4c3c2)c(F)c1"
experimentaltarget = "Tyrosine-protein kinase JAK2 (Homo sapiens, UniProt O60674)"
result = "1 nM"

[[record]]
compound = "CCCOCc1cccc(Nc2nccc(-c3ccc(C(=O)NCC#N)cc3)n2)c1"
experimentaltarget = "Tyrosine-protein kinase JAK2 (Homo sapiens, UniProt O60674)"
result = "< 100 nM"

[[record]]
compound = "C[C@H](Oc1ccc(-c2ncnc(Nc3ccc(N4CCN(C5COC5)CC4)cc3)n2)cc1C#N)C1CCOCC1"
experimentaltarget = "Tyrosine-protein kinase JAK2 (Homo sapiens, UniProt O60674)"
result = "219 nM"

[[record]]
compound = "CCC(CC)n1cc(-c2nc(-c3cnn([C@@H](C)[C@@H](O)CO)c3)cn3nccc23)cn1 (single isomer, unassigned)"
experimentaltarget = "Tyrosine-protein kinase JAK2 (Homo sapiens, UniProt O60674)"
result = "10 to 100 nM"

[[record]]
compound = "CC(=O)Nc1ccc(Nc2ncc3ccn(Cc4ccccc4OC(F)F)c3n2)cc1"
experimentaltarget = "Tyrosine-protein kinase JAK2 (Homo sapiens, UniProt O60674)"
result = "< 20 nM"

[[record]]
compound = "COC1CNc2cc(Nc3ncc(C(N)=O)c(NC4CC4)n3)ccc2OC1 (stereo not drawn)"
experimentaltarget = "Tyrosine-protein kinase JAK2 (Homo sapiens, UniProt O60674)"
result = "10 to 100 nM"

[[record]]
compound = "N#Cc1cc(-c2ncnc(Nc3ccc(N4CCN(C5COC5)CC4)cc3)n2)ccc1O[C@H]1CCN(C(=O)c2ccn[nH]2)C[C@H]1F"
experimentaltarget = "Tyrosine-protein kinase JAK2 (Homo sapiens, UniProt O60674)"
result = "219 nM"

[[record]]
compound = "N#CCC1(n2cc(-c3ncnc4[nH]ccc34)cn2)CN(C2CCN(C(=O)c3cccc(F)c3F)CC2)C1"
experimentaltarget = "Tyrosine-protein kinase JAK2 (Homo sapiens, UniProt O60674)"
result = "≤ 10 nM"

[[record]]
compound = "O=C(NCCC(F)(F)F)C1=NOC2CN(c3ncnc4[nH]ccc34)CC12 (stereo not drawn)"
experimentaltarget = "Tyrosine-protein kinase JAK2 (Homo sapiens, UniProt O60674)"
result = "500 to 2000 nM"

[[record]]
compound = "C1=C/COCc2cc(ccc2OCCN2CCCC2)Nc2nccc(n2)-c2coc(c2)COC/1"
experimentaltarget = "Tyrosine-protein kinase JAK2 (Homo sapiens, UniProt O60674)"
result = "≤ 1000 nM"

[[record]]
compound = "CN(c1ncnc2[nH]ccc12)[C@H]1CN(S(=O)(=O)c2cccc(C#N)c2)CC12CC2"
experimentaltarget = "Tyrosine-protein kinase JAK2 (Homo sapiens, UniProt O60674)"
result = "58.6 nM"

[[record]]
compound = "Cc1cc(C(=O)Nc2ccc(Nc3nccc(-c4cnn(C(CC#N)C5CCCC5)c4)n3)cc2)no1 (racemic)"
experimentaltarget = "Tyrosine-protein kinase JAK2 (Homo sapiens, UniProt O60674)"
result = "< 100 nM"

[[record]]
compound = "CCNc1cc2ccc1C(=O)NCCCCCNc1nc(ncc1C)Nc1cc-2cnc1F"
experimentaltarget = "Tyrosine-protein kinase JAK2 (Homo sapiens, UniProt O60674)"
result = "1000 to 10000 nM"

[[record]]
compound = "CN(c1ncnc2[nH]ccc12)C1CC2(C1)CN(C(=O)c1ccc(C#N)c(F)c1F)C2"
experimentaltarget = "Tyrosine-protein kinase JAK2 (Homo sapiens, UniProt O60674)"
result = "100 to 1000 nM"

[[record]]
compound = "N#Cc1cc(-c2ncnc(Nc3ccc(C(=O)NC4COC4)cc3)n2)ccc1OC1CCOCC1"
experimentaltarget = "Tyrosine-protein kinase JAK2 (Homo sapiens, UniProt O60674)"
result = "899 nM"

[[record]]
compound = "CC(C)N1CC(CC#N)(n2cc(-c3nc(-c4cnn(C)c4)cc4nccn34)cn2)C1"
experimentaltarget = "Tyrosine-protein kinase JAK2 (Homo sapiens, UniProt O60674)"
result = "100 to 1000 nM"

[[record]]
compound = "C[C@H](O)C(=O)N1CC[C@H](Oc2ccc(-c3ncnc(Nc4ccc(N5CC6(CCOCC6)C5)cc4)n3)cc2C#N)[C@H](F)C1"
experimentaltarget = "Tyrosine-protein kinase JAK2 (Homo sapiens, UniProt O60674)"
result = "375 nM"

[[record]]
compound = "N#CCC1(n2cc(-c3ccnc(Nc4ccc(N5CCCCC5=O)cc4)n3)cn2)CC(C#N)C1 (single isomer, unassigned)"
experimentaltarget = "Tyrosine-protein kinase JAK2 (Homo sapiens, UniProt O60674)"
result = "< 100 nM"

[[record]]
compound = "COc1cc(Nc2ncnc(-c3ccc(O[C@H]4CCN(C(=O)CO)C[C@H]4F)c(C#N)c3)n2)ccc1N1CCN(C2COC2)CC1"
experimentaltarget = "Tyrosine-protein kinase JAK2 (Homo sapiens, UniProt O60674)"
result = "26 nM"

[[record]]
compound = "CNC(=O)c1coc(-c2cnc3[nH]ccc3c2N[C@@H]2C[C@H](C)CN(C(=O)CC#N)C2)n1"
experimentaltarget = "Tyrosine-protein kinase JAK2 (Homo sapiens, UniProt O60674)"
result = "≤ 10 nM"

[[record]]
compound = "CN(c1ccccc1CNc1nc(-c2cc(F)c(O)cc2CC(F)(F)F)cc2[nH]nc(-n3cccn3)c12)S(C)(=O)=O"
experimentaltarget = "Tyrosine-protein kinase JAK2 (Homo sapiens, UniProt O60674)"
result = "150 nM"

[[record]]
compound = "Cn1cc(-c2cc3nccn3c(-c3cnn(C4(CCF)CN(S(=O)(=O)NC5CC5)C4)c3)n2)cn1"
experimentaltarget = "Tyrosine-protein kinase JAK2 (Homo sapiens, UniProt O60674)"
result = "100 to 1000 nM"

[[record]]
compound = "C[C@H]1CN(c2ccc(Nc3ncc4ccn(Cc5cccnc5N(C)S(C)(=O)=O)c4n3)cc2)CCN1"
experimentaltarget = "Tyrosine-protein kinase JAK2 (Homo sapiens, UniProt O60674)"
result = "< 20 nM"

[[record]]
compound = "CCc1cc(O)ccc1-c1cc2[nH]ncc2c(N2CC(C)(O)C2)n1"
experimentaltarget = "Tyrosine-protein kinase JAK2 (Homo sapiens, UniProt O60674)"
result = "10.1 nM"

[[record]]
compound = "N#CCC1(n2cc(-c3ncnc4[nH]ccc34)cn2)CN(C2CCN(C(=O)c3ccnc(C(F)(F)F)n3)CC2)C1"
experimentaltarget = "Tyrosine-protein kinase JAK2 (Homo sapiens, UniProt O60674)"
result = "> 100 nM"

[[record]]
compound = "N#CCC(C1CCCC1)n1cc(-c2ccnc(Nc3ccc(C(=O)N4CCC(Oc5ccccn5)C4)cc3)n2)cn1 (mixture of isomers)"
experimentaltarget = "Tyrosine-protein kinase JAK2 (Homo sapiens, UniProt O60674)"
result = "< 100 nM"

[[record]]
compound = "O=C1c2cc3nc(-c4c(NC[C@@H](O)c5cccc(Cl)c5)cc[nH]c4=O)[nH]c3cc2C(=O)N1CCCN1CCOCC1"
experimentaltarget = "Tyrosine-protein kinase JAK2 (Homo sapiens, UniProt O60674)"
result = "> 15000 nM"

[[record]]
compound = "Cc1cnc(Nc2ccc(C(=O)N(C)C)cc2)nc1-c1cnn(C(CC#N)C2CCCC2)c1 (racemic)"
experimentaltarget = "Tyrosine-protein kinase JAK2 (Homo sapiens, UniProt O60674)"
result = "< 100 nM"

[[record]]
compound = "N#CCC(C1CCCC1)n1cc(-c2ncnc3[nH]ccc23)c(CO)n1 (stereo not drawn)"
experimentaltarget = "Tyrosine-protein kinase JAK2 (Homo sapiens, UniProt O60674)"
result = "< 20 nM"

[[record]]
compound = "COCC(C)NC(=O)c1cccc(Nc2nccc(-c3cnn(C(CC#N)C4CCCC4)c3)n2)c1 (mixture of isomers)"
experimentaltarget = "Tyrosine-protein kinase JAK2 (Homo sapiens, UniProt O60674)"
result = "< 100 nM"

